tested on: mouse aortic endothelial cells (MAE); experiment: Endothelial tube formation on Matrigel; format: cell-based; conditions: endothelial tube assay (FIGS. 30 and 31)

Molecule	Measure Unit	ED50
Canstatin: NC1 domain of the α2 chain of Type IV collagen (SEQ ID NO:6) (protein, listed as Homo sapiens) VSIGYLLVKHSQTDQEPMCPVGMNKLWSGYSLLYFEGQEKAHNQDLGLAGSCLARFSTMPFLYCNPGDVCYYASRNDKSYWLSTTAPLPMMPVAEDEIKPYISRCSVCEAPAIAIAVHSQDVSIPHCPAGWRSLWIGYSFLMHTAAGDEGGGQSLVSPGSCLEDFRATPFIECNGGRGTCHYYANKYSFWLTTIPEQSFQGSPSADTLKAGLIRTHISRCQVCMKNL	µg/mL	0.4
Tumstatin 333: residues 1 to 124 of full-length Tumstatin (SEQ ID NO:20) (protein, Tumstatin 333 (amino acids 1-124 of3 SEQ ID NO10)) GLKGKRGDSGSPATWTTRGFVFTRHSQTTAIPSCPEGTVPLYSGFSFLFVQGNQRAHGQDLGTLGSCLQRFTTMPFLFCNVNDVCNFASRNDYSYWLSTPALMPMNMAPITGRALEPYISRCTV	µg/mL	0.075
Tumstatin 334: residues 125 to 244 of full-length Tumstatin (SEQ ID NO:21) (protein, Tumstatin 334 (amino acids 125-244 of SEQ ID NO10)) CEGPAIAIAVHSQTTDIPPCPHGWISLWKGFSFIMFTSAGSEGTGQALASPGSCLEEFRASPFLECHGRGTCNYYSNSYSFWLASLNPERMFRKPIPSTVKAGELEKIISRCQVCMKKRH	µg/mL	0.02

Source of measurements: patent US7387779B2
